Target: His6-TEV-PDGFRβ (557-1016) (Homo sapiens (Human), UniProt P09619)
Sequence (P09619 whole entry, looked up): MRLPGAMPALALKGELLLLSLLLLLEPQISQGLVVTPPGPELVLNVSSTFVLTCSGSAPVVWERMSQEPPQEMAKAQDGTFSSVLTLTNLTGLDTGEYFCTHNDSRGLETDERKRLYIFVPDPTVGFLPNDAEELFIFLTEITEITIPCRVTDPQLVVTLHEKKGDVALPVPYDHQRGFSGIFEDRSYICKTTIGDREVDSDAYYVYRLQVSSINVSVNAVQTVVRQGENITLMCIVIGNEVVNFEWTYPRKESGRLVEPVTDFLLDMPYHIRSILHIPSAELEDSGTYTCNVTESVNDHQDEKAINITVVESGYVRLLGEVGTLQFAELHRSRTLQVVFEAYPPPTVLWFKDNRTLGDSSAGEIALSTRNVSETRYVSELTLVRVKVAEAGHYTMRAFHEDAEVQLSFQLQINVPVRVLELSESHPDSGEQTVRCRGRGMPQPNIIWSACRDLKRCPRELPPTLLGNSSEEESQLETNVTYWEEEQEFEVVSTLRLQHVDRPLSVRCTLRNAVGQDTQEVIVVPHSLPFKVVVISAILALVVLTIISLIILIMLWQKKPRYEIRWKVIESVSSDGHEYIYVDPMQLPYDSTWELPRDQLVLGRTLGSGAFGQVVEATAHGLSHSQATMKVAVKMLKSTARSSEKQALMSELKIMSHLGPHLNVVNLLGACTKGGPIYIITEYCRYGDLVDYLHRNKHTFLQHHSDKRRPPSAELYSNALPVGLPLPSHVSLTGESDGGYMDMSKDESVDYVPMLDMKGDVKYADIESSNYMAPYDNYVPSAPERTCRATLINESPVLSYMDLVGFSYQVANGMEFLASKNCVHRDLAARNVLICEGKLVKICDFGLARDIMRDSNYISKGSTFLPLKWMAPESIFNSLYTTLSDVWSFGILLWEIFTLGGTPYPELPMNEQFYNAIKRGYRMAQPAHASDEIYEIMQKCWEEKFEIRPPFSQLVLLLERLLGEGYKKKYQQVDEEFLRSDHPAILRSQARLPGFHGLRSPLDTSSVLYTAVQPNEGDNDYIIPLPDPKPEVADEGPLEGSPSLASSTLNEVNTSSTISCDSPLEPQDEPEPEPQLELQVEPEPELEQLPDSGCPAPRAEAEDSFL
Assay: PDGFRβ HTRF Assay
Type: biochemical
Settings: 800 μM ATP, 0.5 μM TK-substrate biotin peptide, 30 min pre-incubation, 3 hours reaction; read-out: PDGFR HTRF IC50
pIC50: −log10 of the molar value.

compound	tested.on	pIC50
Cc1ncc(C(=O)NCCN2CCCC2(C)C)cc1Nc1nn(C)c2nc(Nc3ccc(N)nc3)ncc12 [Example 32]	His6-TEV-PDGFRβ (557-1016) (Homo sapiens (Human), UniProt P09619)	9.27
Cc1ncc(C(=O)NCCN2CCC[C@@H]2C)cc1Nc1nn(C)c2nc(Nc3cncnc3)ncc12 [Example 3]	His6-TEV-PDGFRβ (557-1016) (Homo sapiens (Human), UniProt P09619)	9.17
Cc1ncc(C(=O)NCCN2C[C@@H](C)O[C@@H](C)C2)cc1Nc1nn(C)c2nc(Nc3cnn(C)c3)ncc12 [Example 91]	His6-TEV-PDGFRβ (557-1016) (Homo sapiens (Human), UniProt P09619)	9.34
Cc1ncc(C(=O)NCCC2CCCCC2)cc1Nc1nn(C)c2nc(Nc3ccc(CC(=O)O)cc3)ncc12 [Example 104]	His6-TEV-PDGFRβ (557-1016) (Homo sapiens (Human), UniProt P09619)	9.36
Cc1ncc(C(=O)NCCN2CCCC2(C)C)cc1Nc1nn(C)c2nc(Nc3ccnc(N4CCOCC4)c3)ncc12 [Example 101]	His6-TEV-PDGFRβ (557-1016) (Homo sapiens (Human), UniProt P09619)	9.42
CC(=O)Nc1cccc(Nc2ncc3c(Nc4cc(C(=O)NCCN5CCCC5(C)C)cnc4C)nn(C)c3n2)c1 [Example 98]	His6-TEV-PDGFRβ (557-1016) (Homo sapiens (Human), UniProt P09619)	8.70
Cc1ncc(C(=O)NCCN(CCF)C2CCCC2)cc1Nc1nn(C)c2nc(Nc3cnn(C)c3)ncc12 [Example 152]	His6-TEV-PDGFRβ (557-1016) (Homo sapiens (Human), UniProt P09619)	9.35
Cc1ncc(C(=O)NCCN2CCC[C@@H]2C)cc1Nc1nn(C)c2nc(Nc3cnn(C)c3C)ncc12 [Example 155]	His6-TEV-PDGFRβ (557-1016) (Homo sapiens (Human), UniProt P09619)	8.70
COCCCN(CCNC(=O)c1cnc(C)c(Nc2nn(C)c3nc(Nc4cnn(C)c4)ncc23)c1)C1CCC1 [Example 93]	His6-TEV-PDGFRβ (557-1016) (Homo sapiens (Human), UniProt P09619)	9.36
Cc1ncc(C(=O)NCCN2CC3CCC2CC3)cc1Nc1nn(C)c2nc(Nc3cncnc3)ncc12 [Example 6]	His6-TEV-PDGFRβ (557-1016) (Homo sapiens (Human), UniProt P09619)	9.23
Cc1ncc(C(=O)NCCN2CCCC2(C)C)cc1Nc1nn(C)c2nc(Nc3ccnc(N4CCC(CCO)CC4)c3)ncc12 [Example 111]	His6-TEV-PDGFRβ (557-1016) (Homo sapiens (Human), UniProt P09619)	9.29
Cn1cc(Nc2ncc3c(Nc4cc(C(=O)NCCN5CC(C)(C)C5)ccc4F)nn(C)c3n2)cn1 [Example 120]	His6-TEV-PDGFRβ (557-1016) (Homo sapiens (Human), UniProt P09619)	9.49
Cc1ncc(NC(=O)CN2CCC[C@@H]2C)cc1Nc1nn(C)c2nc(Nc3cn(C)cn3)ncc12 [Example 142]	His6-TEV-PDGFRβ (557-1016) (Homo sapiens (Human), UniProt P09619)	8.33
COCCn1cc(Nc2ncc3c(Nc4cc(NC(=O)CN5CCCC5(C)C)cnc4C)nn(C)c3n2)cn1 [Example 125]	His6-TEV-PDGFRβ (557-1016) (Homo sapiens (Human), UniProt P09619)	9.47
Cc1ncccc1Nc1ncc2c(Nc3cc(NC(=O)CN4CCC[C@@H]4C)cnc3C)nn(C)c2n1 [Example 145]	His6-TEV-PDGFRβ (557-1016) (Homo sapiens (Human), UniProt P09619)	8.80
